# test system: S2^126-C0-C2 binding (Homo sapiens, UniProt Q14896)
# Construct: 6X His; made in house; host or cells: E. coli BL21
# Sequence (Q14896 1-451 limits assumed): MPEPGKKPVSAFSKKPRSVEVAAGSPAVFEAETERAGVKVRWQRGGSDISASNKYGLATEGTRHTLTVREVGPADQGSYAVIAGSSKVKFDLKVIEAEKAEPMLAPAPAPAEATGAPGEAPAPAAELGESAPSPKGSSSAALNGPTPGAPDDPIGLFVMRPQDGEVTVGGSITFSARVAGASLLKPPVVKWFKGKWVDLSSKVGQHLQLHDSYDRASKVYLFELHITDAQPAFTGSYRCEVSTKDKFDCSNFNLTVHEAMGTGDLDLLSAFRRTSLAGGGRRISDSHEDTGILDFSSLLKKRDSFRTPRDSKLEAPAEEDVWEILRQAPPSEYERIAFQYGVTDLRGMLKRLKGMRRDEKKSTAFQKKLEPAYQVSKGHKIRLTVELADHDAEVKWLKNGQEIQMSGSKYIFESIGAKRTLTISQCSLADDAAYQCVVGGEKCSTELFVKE
# assay explanation: Solid phase binding assay (SPBA), competition for S2^126-C0-C2 binding
# condition description: SPBA, FIGS. 3A and 3B
measured quantity: ability to compete for S2^126-C0-C2 binding

Recorded results for 5 sequences are shown here.
RKELEEKMVSLLQEKNDLQLQVQAEQDNLNDAEERCDQLIKNK (listed as Mus musculus) [Amg 23004]; unable to compete
PLLKSAETEKEMANMKEEFGRVKDALEKSEARRKELEEKM (listed as Mus musculus) [Amg 23003]; unable to compete
VKEMTERLEDEEEMNAELTAKKRKLEDECSELKKDIDDLELTLAK (listed as Mus musculus) [Amg 23006]; effectively compete
CDQLIKNKIQLEAKVKEMTERLEDEEEMNAELTAKK (listed as Mus musculus) [Amg 23005]; effectively compete
VKEMTERLEDEEEMNAELTAKK (listed as Mus musculus) [Amg 27119]; effectively compete

Give the value of ability to compete for S2^126-C0-C2 binding reported for the following: ETEKEMAMVSLLQAEERCDQDIDDLELTLAK [Amg 23050, scramble control peptide, reference compound]
unable to compete
